- Tested on: MDA-MB-468 breast
- assay.notes: NCI tumour cell line growth inhibition, 48 h; in the data active = GI50 below about 0.43 µM; inactive = the rest
Pick one and only one: active, inactive

A selection of reference data follows.
O=C(c1cc(-c2cc3c(cc2C(=O)N2Cc4ccccc4C[C@H]2CN2CCOCC2)OCO3)n2c1CCCC2)N(c1ccccc1)c1ccc(O)cc1 :: inactive
Cc1ccc(NS(=O)(=O)c2cc(C)ccc2C)cc1 :: inactive
COC[C@H]1OC(=O)c2coc3c2[C@@]1(C)C1=C(C3=O)[C@@H]2CCC(=O)[C@@]2(C)C[C@H]1OC(C)=O :: active
CSc1ccc(/C(=N/N=C(N)N)c2ccc(F)cc2)cc1 :: active
O=C(Nc1ccncc1)C(=O)c1cn(S(=O)(=O)c2ccccc2F)c2ccccc12 :: inactive

Q. Test call, this compound: C#CC[C@H](c1nc2cc(Cl)ccc2c(=O)n1Nc1ccccc1)N(CCCN)C(=O)c1cccc(Cl)c1F
A. active

Q. Test call, this compound: COc1cc(-c2cc(-c3nc4ccccc4[nH]3)[nH]n2)cc(OC)c1OC
A. inactive

Q. Test call, this compound: O=c1[nH]nc2c3c(cccc13)NC(CN1Cc3ccccc3C1)=N2
A. inactive

Q. Test call, this compound: Cc1c(Cl)cccc1NC(=O)c1sc2nc3c(cc2c1N)CCCCCC3
A. active

====

Measured TGI accompanies every entry in the list below.
- Test system: MDA-MB-468 breast
- assay.notes: NCI tumour cell line growth inhibition, 48 h

Value of TGI reported for the compound COC[C@H]1OC(=O)c2coc3c2[C@@]1(C)C1=C(C3=O)[C@@H]2CCC(=O)[C@@]2(C)C[C@H]1OC(C)=O is 4.62 µM

Value of TGI reported for the compound CO/N=C1/NC(=O)/C(=C/c2ccc3ncccc3c2)S1 is > 25 µM

Value of TGI reported for the compound CSc1ccc(/C(=N/N=C(N)N)c2ccc(F)cc2)cc1 is 2.13 µM

====

- System: MDA-MB-468 breast
- assay.notes: NCI tumour cell line growth inhibition, 48 h
quantity.name: TGI

CCc1ccc(CCC(=O)Nc2ncc(Cc3ccccc3)s2)o1 :: > 100 µM
Nc1ncc(-c2ccc(C(F)(F)F)cc2)c(NC2CCCCCC2)n1 :: > 100 µM
C#CC[C@H](c1nc2cc(Cl)ccc2c(=O)n1Nc1ccccc1)N(CCCN)C(=O)c1cccc(Cl)c1F :: 0.755 µM
COc1ccc(C(=O)/C=C/c2cc(C(=O)c3cc(OC)c(OC)c(OC)c3)ccc2OC)cc1 :: > 100 µM

Value of TGI reported for the compound COc1ccc(C2=C(c3cn(C)c4ccccc34)C(=O)NC2=O)cc1OC is > 25 µM

Value of TGI reported for the compound O=C(c1cc(-c2cc3c(cc2C(=O)N2Cc4ccccc4C[C@H]2CN2CCOCC2)OCO3)n2c1CCCC2)N(c1ccccc1)c1ccc(O)cc1 is 96.2 µM
